Data provenance is the supplement of paper PMC10567573.

Below, each entry is listed alongside its reported protein stability index.
B1: RAB11B (parent)
chain: AVPTDEARAFAEKNNLSFIETSAL

- Variants of: B1
- EXPERIMENT DESCRIPTION: protein stability index of a GFP-peptide fusion (GPS, HEK-293T) (PSI 1-6); higher = more stable;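 note: lentivirally expressed fusions sorted by FACS into six bins by GFP to DsRed ratio, PSI derived from sequencing read proportions per bin multiplied by bin number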
- COND: c terminus: a fixed tail appended

Solved entries:
AVPTDEARAWAEKNNLSFIETSAL [F10W] = 2.34
AVPTDEARAFAEKNNLSFIETSIL [A23I] = 2.09
AVPTDEARAFAEKNNLSNIETSAL [F18N] = 4.95

Please give the measured protein stability index for this variant: AVPTDEARAFAEKNNLSFIETMAL [S22M]
2.83

And what about the variant NVPTDEARAFAEKNNLSFIETSAL [A1N] ?
2.88

And what about the variant AVPTDEARAFAEKNNYSFIETSAL [L16Y] ?
3.18

And what about the variant AVPTDEARAFAEKNNLSFIEFSAL [T21F] ?
2.34

And what about the variant AVPTDEARAFAIKNNLSFIETSAL [E12I] ?
1.99

And what about the variant AVPTDEQRAFAEKNNLSFIETSAL [A7Q] ?
3.46

And what about the variant AVPTDETRAFAEKNNLSFIETSAL [A7T] ?
3.17

And what about the variant AVFTDEARAFAEKNNLSFIETSAL [P3F] ?
1.96
